Experimental system: T1, human CD71 extracellular domain (human, UniProt P02786 89-760)
T1 construct: also called hCD71; CD71-ECD
T1 sequence (P02786 89-760): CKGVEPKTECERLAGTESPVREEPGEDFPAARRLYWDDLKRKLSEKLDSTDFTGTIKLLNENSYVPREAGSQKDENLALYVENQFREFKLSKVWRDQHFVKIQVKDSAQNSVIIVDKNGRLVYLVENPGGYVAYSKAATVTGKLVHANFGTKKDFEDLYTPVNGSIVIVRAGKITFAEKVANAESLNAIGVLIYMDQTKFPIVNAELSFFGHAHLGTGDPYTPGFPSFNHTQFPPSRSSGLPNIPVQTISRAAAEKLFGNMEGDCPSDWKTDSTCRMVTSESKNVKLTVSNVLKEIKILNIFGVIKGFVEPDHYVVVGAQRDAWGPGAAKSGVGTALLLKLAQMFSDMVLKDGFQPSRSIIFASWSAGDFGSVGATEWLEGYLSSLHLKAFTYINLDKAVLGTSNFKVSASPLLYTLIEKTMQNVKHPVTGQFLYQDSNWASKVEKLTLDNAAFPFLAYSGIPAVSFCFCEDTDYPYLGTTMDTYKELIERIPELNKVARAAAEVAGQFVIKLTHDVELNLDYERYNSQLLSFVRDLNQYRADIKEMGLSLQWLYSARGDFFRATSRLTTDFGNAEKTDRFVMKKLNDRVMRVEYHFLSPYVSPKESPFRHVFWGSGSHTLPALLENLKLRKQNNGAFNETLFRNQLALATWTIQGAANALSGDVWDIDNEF
Measurement description: primary ELISA; note: test concentration or dose not given here
Measured quantity: RLU (RLU)
Write it as a number; the unit RLU goes unstated.

>>> recorded_result("CD71-binding FN3 domain SEQ ID NO 371 (designed binder) MLPAPKNLVVSRVTEDSARLSWTAPDAAFDSFDIDYVEFGWTGEAIALLVPGSERSYDLTGLKPGTEYWVWIGGVKGGDYSPPLNAYFTT")
"2.08e+06"
>>> recorded_result("CD71-binding FN3 domain SEQ ID NO 370 (designed binder) MLPAPKNLVVSRVTEDSARLSWTAPDAAFDSFYIAYAEPRPDGEAIVLVVPGSERSYDLTGLKPGTEYSVLIHGVKGGLLSSPLSAHFTT")
"2.13e+06"
>>> recorded_result("CD71-binding FN3 domain SEQ ID NO 405 (designed binder) MLPAPKNLVVSRVTEDSARLSWTAPDAAFDSFFIGYLEPQPPGEAIHLWVPGSERSYDLTGLKPGTEYNVTIQGVKGGFPSLPLSAFFTT")
"1.95e+06"
>>> recorded_result("CD71-binding FN3 domain SEQ ID NO 366 (designed binder) MLPAPKNLVVSRVTEDSARLSWTAPDAAFDSFFIGYLEPQPPGEAIDLWVPGSERSYDLTGLKPGTEYNVTIQGVKGGFPSNPLKAQFTT")
"2.29e+06"
>>> recorded_result("CD71-binding FN3 domain SEQ ID NO 393 (designed binder) MLPAPKNLVVSRVTEDSARLSWTAPDAAFDSFFIGYLEPQPPGEAIGLFVPGSERSYDLTGLKPGTEYNVTIQGVKGGFPSLPLQAHFTT")
"4.39e+06"
>>> recorded_result("CD71-binding FN3 domain SEQ ID NO 381 (designed binder) MLPAPKNLVVSRVTEDSARLSWTAPDAAFDSFEIAYQELSLWGEAIVLTVPGSERSYDLTGLKPGTEYYVHIGGVKGGIWSRPLSAIFTT")
"2.48e+06"

For record CD71-binding FN3 domain SEQ ID NO 389 (designed binder) MLPAPKNLVVSRVTEDSARLSWTAPDAAFDSFFIGYLEPQPPGEAIHLLVPGSERSYDLTGLKPGTEYNVTIQGVKGGFPSMPLSAIVTT the listed RLU is 5.82e+06

For record CD71-binding FN3 domain SEQ ID NO 361 (designed binder) MLPAPKNLVVSRVTEDSARLSWTAPDAAFDSFFIGYLEPQPPGEAIQLFVPGSERSYDLTGLKPGTEYNVTIQGVKGGFPSIPLSALFTT the listed RLU is 3.08e+06

For record CD71-binding FN3 domain SEQ ID NO 432 (designed binder) MLPAPKNLVVSRVTEDSARLSWTAPDAAFDSFFIGYLEPQPPGEAIALYVPGSERSYDLTGLKPGTEYNVTIQGVKGGFPSGPLEAYFTT the listed RLU is 3.73e+06
